Test: Permeability of the compound in pH 7.4 PBS buffer incubated for 18 hrs by PAMPA-BBB assay
Parameter: Papp at 18 h. Scope: all listed entries.
Note: unit ×10⁻⁶ cm/s is implicit; provide only the numeric part.

chemicalSmiles | Papp at 18 h [×10⁻⁶ cm/s]
Nc1ccc2oc(N3CCOCC3)nc2c1 | 7.44
COc1cccc(C(=O)N2CCN(c3nc4cc(N)ccc4o3)CC2)c1 | 9.54
Nc1ccc2oc(N3CCN(C(=O)c4ccc(F)cc4)CC3)nc2c1 | 9.67
Nc1ccc2oc(N3CCN(C(=O)c4ccccc4Cl)CC3)nc2c1 | 10.3
Nc1ccc2oc(N3CCN(C(=O)c4cccc(Cl)c4)CC3)nc2c1 | 10.4

Could you now consider this next molecule?
Inquiry: Write down Papp at 18 h measured for item Nc1ccc2oc(N3CCN(c4ccccn4)CC3)nc2c1
Reply text: 9.44

* * *

Target: UniProt:P05067
Sequence (P05067 whole entry): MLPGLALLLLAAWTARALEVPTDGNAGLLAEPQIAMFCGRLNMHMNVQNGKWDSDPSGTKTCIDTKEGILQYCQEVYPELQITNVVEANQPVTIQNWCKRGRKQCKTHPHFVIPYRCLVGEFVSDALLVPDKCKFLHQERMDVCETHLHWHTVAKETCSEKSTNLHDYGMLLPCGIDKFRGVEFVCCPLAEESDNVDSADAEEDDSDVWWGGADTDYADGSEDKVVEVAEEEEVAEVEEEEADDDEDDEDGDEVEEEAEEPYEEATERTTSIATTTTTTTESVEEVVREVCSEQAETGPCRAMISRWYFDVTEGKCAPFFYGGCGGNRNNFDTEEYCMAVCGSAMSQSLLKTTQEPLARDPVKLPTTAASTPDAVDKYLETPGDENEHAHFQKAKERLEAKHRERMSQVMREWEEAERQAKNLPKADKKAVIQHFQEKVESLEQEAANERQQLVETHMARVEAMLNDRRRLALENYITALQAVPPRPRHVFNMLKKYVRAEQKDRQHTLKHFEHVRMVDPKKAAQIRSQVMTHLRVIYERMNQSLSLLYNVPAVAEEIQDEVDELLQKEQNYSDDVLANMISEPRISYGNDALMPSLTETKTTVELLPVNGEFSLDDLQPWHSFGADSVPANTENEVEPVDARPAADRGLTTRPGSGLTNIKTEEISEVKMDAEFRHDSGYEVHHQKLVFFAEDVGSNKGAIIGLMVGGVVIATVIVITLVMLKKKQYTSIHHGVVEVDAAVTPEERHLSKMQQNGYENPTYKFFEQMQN
Assay: Displacement of [125I]IMPY from human amyloid beta(1-42) aggregates incubated for 3 hrs by gamma counting analysis
measuredMetric: Ki (nM)
Response body: numeric value in nM, unit text excluded.

Inquiry: In one line, give reported Ki of the entry CN(C)c1ccc(-c2nc3cc([125I])ccc3o2)cn1 .
Reply text: 6.9

* * *

# maps each entry to its IC50
Target: Acetylcholinesterase (Electrophorus electricus, UniProt O42275)
Sequence (O42275 whole entry): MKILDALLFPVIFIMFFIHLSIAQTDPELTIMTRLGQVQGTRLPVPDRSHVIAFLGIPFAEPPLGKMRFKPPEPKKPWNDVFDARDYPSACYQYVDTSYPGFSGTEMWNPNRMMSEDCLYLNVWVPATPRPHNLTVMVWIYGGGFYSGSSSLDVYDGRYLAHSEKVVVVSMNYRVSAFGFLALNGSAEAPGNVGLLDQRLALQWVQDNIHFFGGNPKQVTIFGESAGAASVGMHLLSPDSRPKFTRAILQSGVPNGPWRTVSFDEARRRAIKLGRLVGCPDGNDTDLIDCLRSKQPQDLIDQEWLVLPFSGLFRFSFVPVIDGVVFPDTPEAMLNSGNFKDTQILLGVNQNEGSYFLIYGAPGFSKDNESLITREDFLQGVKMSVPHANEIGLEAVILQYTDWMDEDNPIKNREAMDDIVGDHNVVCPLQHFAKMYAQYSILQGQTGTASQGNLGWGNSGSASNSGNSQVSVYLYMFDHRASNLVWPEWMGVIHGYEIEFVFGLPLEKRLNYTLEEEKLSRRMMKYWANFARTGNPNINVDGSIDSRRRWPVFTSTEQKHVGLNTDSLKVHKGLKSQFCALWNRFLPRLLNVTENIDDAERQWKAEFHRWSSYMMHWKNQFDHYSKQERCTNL
Express it in nM; write the number only.

chemicalSmiles | IC50 (nM)
Nc1ccc2oc(N3CCCCC3)nc2c1 | 5680
COc1ccc(C(=O)N2CCN(c3nc4cc(N)ccc4o3)CC2)cc1 | 275
Nc1ccc2oc(N3CCN(c4ccc(Br)cc4)CC3)nc2c1 | 1050

Inquiry: Look up and report IC50, with Acetylcholinesterase (Electrophorus electricus, UniProt O42275) as system, for COc1cccc(C(=O)N2CCN(c3nc4cc(N)ccc4o3)CC2)c1
Reply text: 550

* * *

Target: Cholinesterase (Equus caballus, UniProt P81908)
Sequence (P81908 whole entry): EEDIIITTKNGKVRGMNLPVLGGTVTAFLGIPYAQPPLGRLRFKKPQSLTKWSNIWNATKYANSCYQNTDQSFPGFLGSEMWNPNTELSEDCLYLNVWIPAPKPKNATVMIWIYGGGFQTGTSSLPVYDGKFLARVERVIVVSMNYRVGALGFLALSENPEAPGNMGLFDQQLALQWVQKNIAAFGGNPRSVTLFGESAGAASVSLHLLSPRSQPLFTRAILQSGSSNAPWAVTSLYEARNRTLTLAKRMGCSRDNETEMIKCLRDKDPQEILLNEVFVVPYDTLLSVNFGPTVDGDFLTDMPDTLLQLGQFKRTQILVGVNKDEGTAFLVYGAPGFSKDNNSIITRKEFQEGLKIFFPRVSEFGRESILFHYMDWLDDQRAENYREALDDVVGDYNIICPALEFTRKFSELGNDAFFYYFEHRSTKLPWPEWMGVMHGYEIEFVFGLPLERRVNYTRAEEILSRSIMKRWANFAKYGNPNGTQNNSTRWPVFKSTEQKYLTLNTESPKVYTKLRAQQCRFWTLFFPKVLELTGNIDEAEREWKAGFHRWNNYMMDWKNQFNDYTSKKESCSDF
Experiment: Inhibition of equine serum BuChE using butyrylthiocholine iodide as substrate preincubated for 30 mins followed by substrate addition and measured for 1 min by DTNB reagent-based spectrophotometric analysis
measuredMetric: pIC50
Interpret pIC50 as the negative base-10 log of the concentration measured in mol/L.

Inquiry: Provide pIC50, system Cholinesterase (Equus caballus, UniProt P81908), entry Nc1ccc2oc(N3CCN(C(=O)c4cccc(F)c4)CC3)nc2c1
Reply text: 5.26

Inquiry: Report value only: pIC50, Cholinesterase (Equus caballus, UniProt P81908), Nc1ccc2oc(NC3CCN(Cc4ccccc4)CC3)nc2c1
Reply text: 5.64

Inquiry: Specify pIC50 for COc1cccc(C(=O)N2CCN(c3nc4cc(N)ccc4o3)CC2)c1 , system Cholinesterase (Equus caballus, UniProt P81908).
Reply text: 4.93

Inquiry: // fetch pIC50 for Nc1ccc2oc(N3CCN(C(=O)c4ccc(Br)cc4)CC3)nc2c1 ; system: Cholinesterase (Equus caballus, UniProt P81908)
Reply text: 5.96

Inquiry: // output pIC50; input Nc1ccc2oc(N3CCN(Cc4ccccc4)CC3)nc2c1 ; system Cholinesterase (Equus caballus, UniProt P81908)
Reply text: 5.17

* * *

Measured Papp at 18 h values are reported for all entries that follow.
Assay: Permeability of the compound in pH 7.4 PBS buffer incubated for 18 hrs by PAMPA-BBB assay
Dear colleague, please return just the value in ×10⁻⁶ cm/s, with no unit written.

Reference set (8 entries):
chemicalSmiles | measuredMetric | recordedMeasurement
Nc1ccc2oc(N3CCN(Cc4ccc(F)cc4)CC3)nc2c1 | Papp at 18 h | 10.5
COc1ccc(Cl)cc1C(=O)N1CCN(c2nc3cc(N)ccc3o2)CC1 | Papp at 18 h | 8.82
Nc1ccc2oc(N3CCN(c4ccc(Cl)cc4)CC3)nc2c1 | Papp at 18 h | 10.6
Cc1ccc(N2CCN(c3nc4cc(N)ccc4o3)CC2)cc1 | Papp at 18 h | 10.4
Nc1ccc2oc(N3CCN(c4ccc(Br)cc4)CC3)nc2c1 | Papp at 18 h | 10.5
Nc1ccc2oc(N3CCN(Cc4ccc(Br)cc4)CC3)nc2c1 | Papp at 18 h | 11.3
COc1ccc(CN2CCN(c3nc4cc(N)ccc4o3)CC2)cc1 | Papp at 18 h | 9.49
COc1ccc(C(=O)N2CCN(c3nc4cc(N)ccc4o3)CC2)cc1 | Papp at 18 h | 9.71

Inquiry: Determine from records and report Papp at 18 h for COc1ccccc1C(=O)N1CCN(c2nc3cc(N)ccc3o2)CC1
Reply text: 9.21

Inquiry: Output measured Papp at 18 h for this item: Nc1ccc2oc(N3CCN(C(=O)c4ccc5c(c4)OCO5)CC3)nc2c1
Reply text: 9.64

* * *

Test: Selectivity index, ratio of IC50 for equine serum BuChE to IC50 for electric eel AChE
Each entry below carries its recorded Ratio IC50.
Answer field: number only, no words.

Inquiry: Check the records and state Ratio IC50 for COc1ccc(Cl)cc1C(=O)N1CCN(c2nc3cc(N)ccc3o2)CC1
Reply text: 4.2

Inquiry: Report Ratio IC50 for Nc1ccc2oc(N3CCN(C(=O)c4ccc5c(c4)OCO5)CC3)nc2c1
Reply text: 2.4

Inquiry: Quickly give me recorded Ratio IC50 for Nc1ccc2oc(N3CCN(C(=O)c4cccc(Br)c4)CC3)nc2c1
Reply text: 16.4

* * *

Molecular target: Acetylcholinesterase (Electrophorus electricus)
Assay: Inhibition of electric eel AChE using acetylthiocholine iodide as substrate preincubated with enzyme for 30 mins followed by substrate addition and measured for 1 min by DTNB reagent-based spectrophotometric analysis
measuredMetric: IC50 (nM)
Note: unit nM is implicit; provide only the numeric part.

chemicalSmiles | measuredMetric | recordedMeasurement
Nc1ccc2oc(N3CCN(Cc4ccc(Cl)cc4)CC3)nc2c1 | IC50 | 747
Nc1ccc2oc(N3CCN(Cc4ccc(F)cc4)CC3)nc2c1 | IC50 | 525

Inquiry: Find the measured IC50 of COc1ccc(CN2CCN(c3nc4cc(N)ccc4o3)CC2)cc1 and report it.
Reply text: 748

Inquiry: Give reported IC50 value for Nc1ccc2oc(N3CCN(C(=O)c4cccc(Br)c4)CC3)nc2c1
Reply text: 163

Inquiry: Look up IC50 of Nc1ccc2oc(N3CCN(c4ccccn4)CC3)nc2c1 and report it.
Reply text: 3310

Inquiry: Could you please provide reported IC50 for Nc1ccc2oc(N3CCN(C(=O)c4ccc(Br)cc4)CC3)nc2c1 ? Thanks!
Reply text: 52

Inquiry: Report IC50 for Nc1ccc2oc(N3CCN(C(=O)c4ccccc4)CC3)nc2c1
Reply text: 801

Inquiry: For the compound Nc1ccc2oc(N3CCN(c4ccc(Cl)cc4)CC3)nc2c1 , report IC50.
Reply text: 1960
